- Test protocol: Displacement of [3H]AMPA from AMPA receptor in rat synaptic membrane
- Type: cell membranes
compounds and their reported Ki
Hi! Could you send only the number? It should be in µM, unit omitted.

>>> reported("N[C@@H](C[C@]1(C(=O)O)C[C@H]2OC[C@@H](O)[C@@H](O)[C@H]2O1)C(=O)O")
0.151
>>> reported("CN[C@H]1[C@H]2O[C@@](C[C@H](N)C(=O)O)(C(=O)O)C[C@H]2OC[C@H]1O")
0.153

Turning now to a further record.
Problem: Which Ki reading was recorded for the compound N[C@@H](C[C@]1(C(=O)O)C[C@H]2O[C@H](CO)[C@@H](O)[C@@H](O)[C@H]2O1)C(=O)O [10-HYDROXY-METHYL-NEODYSIHERBAINE A] ?
Result: 0.153

----------
- Test protocol: Displacement of [3H]kainic acid from Kainate receptor in rat synaptic membrane
- Format: cell membranes
Parameter: Ki (nM)
Return type: number; implicit unit nM.

Problem: Param item = N[C@@H](C[C@]1(C(=O)O)C[C@H]2O[C@H](CO)[C@@H](O)[C@@H](O)[C@H]2O1)C(=O)O [10-HYDROXY-METHYL-NEODYSIHERBAINE A] ; retrieve measured Ki.
Result: 790

Problem: Tell me the measured Ki of CN[C@H]1[C@H]2O[C@@](C[C@H](N)C(=O)O)(C(=O)O)C[C@H]2OC[C@H]1O [DYSIHERBAINE] , please.
Result: 26

Problem: What value of Ki has been recorded for this entry: N[C@@H](C[C@]1(C(=O)O)C[C@H]2OC[C@@H](O)[C@@H](O)[C@H]2O1)C(=O)O [NEODYSIHERBAINE A]
Result: 52
